Recorded values, source patent US20240101645A1.

# tgt: T1, SARS-CoV-2 NTD (1-290) (SARS-CoV-2, UniProt P0DTC2 14-290)
# T1 construct: range 1-290
# assay-procedure: BLI, 1:1 model
metric: Kd

# Kd lookup, item COV_2004 (antibody, V domains shown, human IgG1) VH: QVQLVQSGAEVKKPGASVKVSCKASGYTFTGYYMHWVRQAPGQGLEWMGRINPSSGGTNYAQKFQGRVTMTRDTSISTAYMELSSLRSDDTAVYYCATDGDDGENWFDPWGQGTLVIVSS VL: DIQMTQSPSSLSASVGDRVTITCRASQGISSWLAWYQQKPEKAPKSLIYAASSLQSGVPSRFSGSGSGTDFTLTISSLQPEDFATYYCQQYNSYPYTFGQGTKLEIK < 1 pM
